Test system Bacillus megaterium ATCC 9885, MIC listed for each of the molecules.
Expressed in µg/mL, but write only the number.

Q: For COc1ccc(/C=C/C(=O)c2ccc(NS(=O)(=O)c3c(O)c4cc(C)ccc4oc3=O)cc2)cc1 , what is its reported MIC?
Ans: 250

Q: // lookup MIC for O=c1oc2ccc(Cl)cc2c(O)c1S(=O)(=O)Nc1ccc(O)cc1
Ans: 250

Q: I am curious: what MIC value has been reported for Cc1ccc2oc(=O)c(S(=O)(=O)Nc3ccccc3)c(O)c2c1 ?
Ans: 1000

Q: Any idea what MIC was measured for O=c1oc2ccc(Cl)cc2c(O)c1S(=O)(=O)Nc1ccc(S(=O)(=O)Nc2ncccn2)cc1 ?
Ans: 125

Q: I would be grateful if you could share the reported MIC for COc1ccc(/C=C/C(=O)c2ccc(NS(=O)(=O)c3c(O)c4cc(Cl)ccc4oc3=O)cc2)cc1 .
Ans: 500

Q: If you can, please state the reported MIC value of Cc1ccc2oc(=O)c(S(=O)(=O)Nc3ccc(C(=O)/C=C/c4ccc([N+](=O)[O-])cc4)cc3)c(O)c2c1 .
Ans: 500

Q: Value lookup for MIC; key = O=c1oc2ccc(Cl)cc2c(O)c1S(=O)(=O)Nc1ccccc1
Ans: 250

Q: Give the measured MIC of Cc1ccc2oc(=O)c3c(c2c1)OC(N)=C(C#N)C3c1ccc([N+](=O)[O-])cc1 (racemic) .
Ans: 500

Q: Which MIC is reported for this molecule? Cc1ccc2oc(=O)c(S(=O)(=O)Nc3ccc(S(=O)(=O)Nc4ncccn4)cc3)c(O)c2c1
Ans: 125

Q: What does the data say about its MIC? Entry: Cc1ccc2oc(=O)c3c(c2c1)OC(/N=C/c1ccccc1)=C(C#N)C3c1ccc([N+](=O)[O-])cc1 (racemic)
Ans: 500

Q: What does the record list as MIC for Cc1ccc2oc(=O)c3c(c2c1)OC(/N=C/c1ccc(Cl)cc1Cl)=C(C#N)C3c1ccco1 (racemic) ?
Ans: 1000

Q: I would be grateful if you could share the reported MIC for Cc1ccc2oc(=O)c3c(c2c1)OC(N)=C(C#N)C3c1ccco1 (racemic) .
Ans: 500

Q: MIC for Cc1ccc2oc(=O)c(S(=O)(=O)Nc3ccc(C(=O)/C=C/c4ccc(Cl)cc4)cc3)c(O)c2c1 ?
Ans: 250

Q: Query (molecule): COc1cc(/C=N/C2=C(C#N)C(c3ccc([N+](=O)[O-])cc3)c3c(c4cc(C)ccc4oc3=O)O2)cc(OC)c1OC (racemic) ; field requested: MIC
Ans: 500

Q: Quick one: MIC for O=c1oc2ccc(Cl)cc2c(O)c1S(=O)(=O)Nc1ccc(S(=O)(=O)Nc2nccs2)cc1 ?
Ans: 500

Q: Consider the molecule shown here: NS(=O)(=O)c1ccc(NS(=O)(=O)c2c(O)c3cc(Cl)ccc3oc2=O)cc1 What is its recorded MIC?
Ans: 500

Q: What measured MIC goes with Cc1ccc2oc(=O)c(S(=O)(=O)Nc3ccc(S(=O)(=O)Nc4nccs4)cc3)c(O)c2c1 ?
Ans: 250

Q: Any idea what its MIC is? The molecule is O=C(/C=C/c1ccc([N+](=O)[O-])cc1)c1ccc(NS(=O)(=O)c2c(O)c3cc(Cl)ccc3oc2=O)cc1
Ans: 1000

Q: # query: MIC of entry O=C(O)c1cn(C2CC2)c2cc(N3CCNCC3)c(F)cc2c1=O [Ciprofloxacin, reference compound]
Ans: 125

Q: Report MIC for Cc1ccc2oc(=O)c(S(=O)(=O)Nc3ccc(O)cc3)c(O)c2c1 please.
Ans: 250

Q: Bench note: what MIC did O=C(/C=C/c1ccc(Cl)cc1)c1ccc(NS(=O)(=O)c2c(O)c3cc(Cl)ccc3oc2=O)cc1 show?
Ans: 250
